tested on: MIWI (PIWIL1) piRISC loaded with L1MC piRNA (30 nt); assay: pre-steady-state target cleavage rate (min^-1); MIWI and MILI are mouse PIWI proteins and EfPiwi is from a freshwater sponge; tags in brackets are library labels; higher = faster piRNA-guided slicing of the target; conditions: guide: L1MC piRNA 5'p-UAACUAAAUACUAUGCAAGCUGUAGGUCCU; auxiliary factor: 500 nM mouse GTSF1;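 note: 1 nM active piRISC with 0.1 nM target library at 33 °C single turnover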
Whole data set: some 8,200 sequences, median “pre-steady-state target cleavage rate” near 0.024, cut for the highest 2% near 1.3. Only a selection was taken, and the highest values are over-represented in it overall.
Each entry below lists one item and its recorded pre-steady-state target cleavage rate value.
measured quantity: pre-steady-state target cleavage rate

> print(dat)
                              chain  reading
 1   AGGACCUACUGCUUGCAAAGUAUUUAGUUA     1.11
 2   UCCUGGAACAGCUUGCUAUGUAUUUAGUUA   0.0729
 3   AGCACCUACAGCUUGCAUAGUAUUUACUUA      1.4
 4   UCCUCGAACAGCUUGCAUAGUAUUUAGAAA    0.474
 5   UCCUCGAUCAGCUUGCAUAGUAUUUAGUUA     1.58
 6   AGGAGCUACAGCUUGCAUAGUAUUUAGUAA     1.02
 7   UCGACCUACUGCUUGCAAAGUAUUUAGUUA     1.33
 8   AGGACCUACAGGUAGCAUAGUAUUUAGUUA     1.04
 9   UCCUGGUUCAGCUAGCAUAGUAUUUAGUUA    0.872
10   UCGACGAACAGCUUGCAUAGUAUUUAGUUA     1.38
11   UCCUGGAUGAGCUUGCAUAGUUUUAAGUUA   0.0288
12   AGGACCAACUGCUUGCAUAGUAUUUAGUUA     1.22
13   AGGACCUACAGCUUGCUUAGUAUUUAGUUA     1.43
14  AGGACCAUACAGCUUGCAUAGUAUUUAGUUA     1.06
15   UGGACCAACUGCUUGCAUAGUAUUUAGUUA     1.27
16   UCCUGCUUCAGCUAGCAUAGUAUUUAGUUA     1.32
17   UCGACAUACAGCUUGCAUAGUAUUUAGUUA     1.38
18   UCCGCCUACAGCUUGCAUAGUAUUUAGUUA     1.23
19   UCCACCAACUGCUUGCAUAGUAUUUAGUUA    0.828
20   UCCUGGAACAGCUUCCAUAGUAUUUAGAAA  0.00998
21   UCGAGCUACAGCAUGCAUAGUAUUUAGUUA     1.19
22   AGGAGCUACAGCUUGCAUAGUAUUUAGUUA     1.42
23   AGGACGAUCAGCUUGCAUAGUAUUUAGUAA     1.02
24   AGGAGCUACAGCAUGCAUAGUAUUUAGUUA     1.37
25   UCCUGGUUCAGCAUGCAUAGUAUUUAGUUA     0.93
26   UGGACCUACUGCUUGCAAAGUAUUUAGUUA     1.23
27   UCCUGCUAGAGCUUGCAUAGUAUUUACAAA    0.186
28   UGGACCUACAACUUGCAUAGUAUUUAGUUA      1.5
29    UGACCUACAGCUUGCAUAGUAUUUAGUUA     1.57
30  UGGACCUACAAGCUUGCAUAGUAUUUAGUUA     1.03
31   AGGACCUACAGCUUGCAUAGUAUUUAGUGA     1.01
32   UCCUGCUUCAGCAUGCAUAGUAUUUAGUUA     1.32
33   UCCUGGAUGUCCUUGCUAUGUAUUUAGUAA  0.00637
34    UCGACCUACACUUGCAUAGUAUUUAGUUA     1.09
35   UCCUCGAACAGCUUGCAUAGUAUUUAGUAA    0.982
36   UCCUGGUACAGCUUGCAUCGUAUUUAGUUA    0.203
37    UCCUGGAACAGCUGCAUAGUAUUUAGUUA    0.767
38   UCCUGCUUCAGCUUGCAUAGUAUUUAGUUA     1.19
39  UCCUGGUACAGGCUUGCAUAGUAUUUAGUUA    0.498
40  UCCUGGAUGUCCUUGCAUAGUAUUUAGCUUA   0.0471
41    AGGACCUACACUUGCAUAGUAUUUAGUUA     1.15
42   UCCUGGAACAGCUUGCAAAGUAAUUAGUUA    0.545
43   UCCACCUACAACUUGCAUAGUAUUUAGUUA    0.869
44   UCCUGGAUGUGCUUGCUUAGUAUUUAGUAA   0.0383
45   UGGACCUACUGCAUGCAUAGUAUUUAGUUA     1.27
46   UGGACAUACAGCUUGCAUAGUAUUUAGUUA     1.23
47   UCCUCCUUCAGCUAGCAUAGUAUUUAGUUA     0.78
48   UCGACCUACUGCAUGCAUAGUAUUUAGUUA     1.33
49   UCGACGAUCAGCUUGCAUAGUAUUUAGAAA    0.494
50   UGGACGAACAGCUUGCAUAGUAUUUAGUUA     1.17
51   UGGAGCUACAGCUUGCAUAGUAUUUAGUAA    0.953
52  AGUGACCUACAGCUUGCAUAGUAUUUAGUUA     1.38
53   AGGAGCUACACCUUGCAUAGUAUUUAGUUA     1.36
54  UCCUGGAACAGCUUGCAUAGCUAUUUAGUUA   0.0102
55  UGUGACCUACAGCUUGCAUAGUAUUUAGUUA     1.45
